Target: T1, VEGFR-1-Fc (UniProt P17948 27-338)
T1 construct: domain: first three Ig domains; expressed in Drosophila S2 cells, purified on Protein A sepharose; also called VEGFR-1-Fc fusion protein; not shown: Fc fragment from the Signal-pIgPlus vector
T1 sequence (P17948 27-338): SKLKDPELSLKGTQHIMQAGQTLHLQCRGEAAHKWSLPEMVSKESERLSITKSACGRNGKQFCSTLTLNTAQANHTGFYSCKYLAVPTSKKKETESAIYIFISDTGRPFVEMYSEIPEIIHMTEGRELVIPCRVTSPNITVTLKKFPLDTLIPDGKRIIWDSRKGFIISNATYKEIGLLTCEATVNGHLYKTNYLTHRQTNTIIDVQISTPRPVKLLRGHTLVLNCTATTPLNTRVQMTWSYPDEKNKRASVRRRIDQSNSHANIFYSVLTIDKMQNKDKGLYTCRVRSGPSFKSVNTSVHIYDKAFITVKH
Assay: receptor-Fc IP

- binder: "74-15 (ligand) GQNHHEVVKSIDNEWRKTQCMPREVCIDVGKEFGVATNTFFKPSCVPLMRCGGCCNSEGLQCVPTEESNITMQIMRITVPLSQGPKPVTISFANHTSCRCMSKLD"
  binding result: "no binding"
- binder: "64-14 (ligand) GQNHHEVVKFMDVYQRSYCHPREVCIDVGKEFGVATNTFFKPSCVPLMRCGGCCNDEGLECMNTSTSYLSKTLFEITVPLSQGPKPVTISFANHTSCRCMSKLD"
  binding result: "no binding"
- binder: "54-3 (ligand) AHYNTEILKSIDNEWRKTQCMPIETLVDIFQEFGVATNTFFKPSCVPLMRCGGCCNSEGLQCVPTEESNITMQIMRIKPHQGQHIGEMSFLQHNKCECRPKKD"
  binding result: "no binding"
- binder: "12-14 (ligand) GQNHHEVVKFMDVYQRSYCHPIETLVDIFQEFGVATNTFFKPPCVSVYRCGGCCNDEGLECMNTSTSYLSKTLFEITVPLSQGPKPVTISFANHTSCRCMSKLDL"
  binding result: "no binding"

These entries and their values trace back to patent US20080058263A1.
